# Test system: S. marcescens GN6944
# assay: MIC, agar plate dilution method, S. marcescens GN6944
# Assay type: cell-based, Serratia marcescens
# condition-description: S. marcescens GN6944, GM-resistant
Answer each item with its documented minimal inhibitory concentration (MIC).
Write it as a number; the unit µg/mL goes unstated.

What does the record list as minimal inhibitory concentration (MIC) for CNC1C(OC2OC(CO)C(N)C(O)C2O)OC2CC(N)C(OC3C(N)CC(N)C(O)C3F)OC2C1O (stereo not drawn) [Compound B7, 5-deoxy-5-epi-5-fluoroapramycin] ?
8

What does the record list as minimal inhibitory concentration (MIC) for CN[C@@H]1[C@@H](O[C@H]2O[C@H](CO)[C@@H](NC(=O)[C@H](N)CO)[C@H](O)[C@H]2O)O[C@H]2C[C@@H](N)[C@@H](O[C@H]3[C@H](O)[C@@H](O)[C@H](N)C[C@@H]3N)O[C@@H]2[C@@H]1O [Compound V1-f, 4″-N-(D-seryl)apramycin] ?
16

What does the record list as minimal inhibitory concentration (MIC) for CNC1C(CO)OC(OC2OC3CC(N)C(OC4C(N)CC(N)C(O)C4O)OC3C(O)C2NC)C(O)C1O (centres unmarked) [Compound A4-a, 4″-N-methylapramycin] ?
8

What does the record list as minimal inhibitory concentration (MIC) for CNC1C(O[C@H]2OC(CO)[C@@H](NC(=O)[C@H](C)N)[C@H](O)C2O)O[C@H]2CC(N)[C@@H](O[C@@H]3C(N)C[C@@H](N)C(O)[C@H]3O)OC2C1O (stereo partly drawn) [Compound V1-c, 4″-N-(L-alanyl)apramycin] ?
8

What does the record list as minimal inhibitory concentration (MIC) for CN[C@@H]1[C@@H](O[C@H]2O[C@H](CO)[C@@H](N)C[C@H]2O)O[C@H]2C[C@@H](N)[C@@H](O[C@@H]3[C@@H](N)C[C@@H](N)C[C@@H]3O)O[C@@H]2[C@@H]1O [Compound N5, 6,3″-dideoxy-5-epiapramycin] ?
4

====

// each record: one item and its MIC for A. baumannii ATCC BAA-1710
Write it as a number; the unit µg/mL goes unstated.

What does the record list as MIC for CNC1C(O[C@H]2OC(C)[C@@H](NC(=N)N)[C@H](O)C2O)O[C@H]2CC(N)[C@@H](O[C@H]3CC(O)[C@H](N)CC3N)OC2C1O (some centres unmarked) ?
16

What does the record list as MIC for CNC1C(O[C@H]2OC(CO)[C@@H](NC(CN)CN)[C@H](O)C2O)O[C@H]2CC(N)[C@@H](O[C@H]3CC[C@H](N)CC3N)OC2C1O (some centres unmarked) ?
8

What does the record list as MIC for CNC1C(O[C@H]2OC(CF)[C@@H](N)[C@H](O)C2O)O[C@H]2CC(N)[C@@H](O[C@@H]3C(N)C[C@@H](N)C(O)[C@H]3O)OC2C1O (some centres unmarked) ?
32

What does the record list as MIC for CNC1C(O[C@H]2OC(CO)[C@@H](NC(=O)CN)[C@H](O)C2O)O[C@H]2CC(N)[C@@H](O[C@@H]3C(N)C[C@@H](N)C(O)[C@H]3O)OC2C1O (single isomer, unassigned) [Compound V1-i, 5-epi-4″-N-glycylapramycin] ?
4

What does the record list as MIC for CNC1C(O[C@H]2OC(CO)[C@@H](NC)[C@H](O)C2O)O[C@H]2CC(N)[C@@H](O[C@H]3CC(O)[C@H](N)CC3N)OC2C1O (some centres unmarked) ?
8

====

Answer each item with its documented minimal inhibitory concentration (MIC).
# System: E. faecium ATCC19434
# assay: MIC, agar plate dilution method, E. faecium ATCC19434
# Type: cell-based, Enterococcus faecium
# condition-description: E. faecium ATCC19434
Write it as a number; the unit µg/mL goes unstated.

What does the record list as minimal inhibitory concentration (MIC) for CNC1C(O[C@H]2OC(CO)[C@@H](NCCCN)[C@H](O)C2O)O[C@H]2CC(N)[C@@H](O[C@@H]3C(N)C[C@@H](N)C(O)[C@H]3O)OC2C1O (some centres unmarked) [Compound S1-h, 4″-N-(3-aminopropyl)-5-epiapramycin] ?
16

What does the record list as minimal inhibitory concentration (MIC) for CNC1C(O[C@H]2OC(CO)[C@@H](NC3CNC3)[C@H](O)C2O)O[C@H]2CC(N)[C@@H](O[C@@H]3C(N)C[C@@H](N)C(O)[C@H]3O)OC2C1O (some centres unmarked) ?
32

====

Answer each item with its documented MIC.
Write it as a number; the unit µg/mL goes unstated.

For S. aureus MF490, provide MIC of CNC1C(O[C@H]2OC(C)[C@@H](N)[C@H](O)C2O)O[C@H]2CC(N)[C@@H](O[C@H]3CC(O)[C@H](N)CC3N)OC2C1O (stereo partly drawn) please.
4

For S. aureus MF490, provide MIC of CNC1C(O[C@H]2OC(CO)[C@@H](NC(=O)CN)[C@H](O)C2O)O[C@H]2C[C@H](N)[C@@H](O[C@@H]3C(N)C[C@@H](N)C[C@H]3O)OC2C1O (stereo partly drawn) [Compound V1-o, 6-deoxy-5-epi-4″-N-glycylapramycin] please.
4

For S. aureus MF490, provide MIC of NCC[C@H](O)C(=O)N[C@@H]1C[C@H](N)[C@@H](O[C@H]2O[C@H](CN)CC[C@H]2N)[C@H](O)[C@H]1O[C@H]1O[C@H](CO)[C@@H](O)[C@H](N)[C@H]1O [ABK, arbekacin, reference compound] please.
64

For S. aureus MF490, provide MIC of CNC1C(O[C@H]2OC(CO)[C@@H](NCCN)[C@H](O)C2O)O[C@H]2CC(N)[C@@H](O[C@H]3CC[C@H](N)CC3N)OC2C1O (stereo partly drawn) please.
8

For S. aureus MF490, provide MIC of CNC1C(O[C@H]2OC(CO)[C@@H](N)[C@H](O)C2N)O[C@H]2CC(N)[C@@H](O[C@@H]3C(N)C[C@@H](N)C(O)[C@H]3O)OC2C1O (stereo partly drawn) [Compound G7, 2″-amino-2″-deoxy-2″,3″-diepiapramycin] please.
16

For S. aureus MF490, provide MIC of CNC1C(O[C@H]2OC(CO)[C@@H](NC(=N)N)[C@H](O)C2O)O[C@H]2CC(N)[C@@H](O[C@@H]3C(N)C[C@@H](N)C(O)[C@H]3F)OC2C1O (stereo partly drawn) please.
4

For S. aureus MF490, provide MIC of CNC1C(O[C@H]2OC(CO)[C@@H](NC(=O)CCN)[C@H](O)C2O)O[C@H]2C[C@H](N)[C@@H](O[C@@H]3C(N)C[C@@H](N)C(O)[C@H]3O)OC2C1O (stereo partly drawn) [Compound V1-m, 4″-N-(β-alanyl)-5-epiapramycin] please.
8

For S. aureus MF490, provide MIC of CNC1C(O[C@H]2OC(C)[C@@H](N)[C@H](O)C2O)O[C@H]2CC(N)[C@@H](O[C@H]3CC[C@H](N)CC3N)OC2C1O (stereo partly drawn) please.
8

For S. aureus MF490, provide MIC of CNC1C(O[C@H]2OC(CO)[C@@H](NC(=O)CN)[C@H](O)C2O)O[C@H]2C[C@H](N)[C@@H](O[C@@H]3C(N)C[C@@H](N)C(O)[C@H]3N)OC2C1O (stereo partly drawn) please.
16

For S. aureus MF490, provide MIC of CNC1C(O[C@H]2OC(CO)[C@@H](NC(=O)[C@@H](O)CN)[C@H](O)C2O)O[C@H]2CC(N)[C@@H](O[C@@H]3C(N)C[C@@H](N)C(O)[C@H]3O)OC2C1O (stereo partly drawn) please.
8

For S. aureus MF490, provide MIC of CNC1C(O[C@H]2OC(CO)[C@@H](NCCN)[C@H](O)C2O)O[C@H]2CC(N)[C@@H](O[C@@H]3C(N)C[C@@H](N)C[C@H]3O)OC2C1O (stereo partly drawn) please.
8

For S. aureus MF490, provide MIC of CNC1C(O[C@H]2OC(CO)[C@@H](NC(=O)CN)[C@H](O)C2O)O[C@H]2CC(N)[C@@H](O[C@@H]3C(N)C[C@@H](N)C(O)[C@H]3O)OC2C1O (single isomer, unassigned) [Compound V1-i, 5-epi-4″-N-glycylapramycin] please.
8

For S. aureus MF490, provide MIC of CNC1C(O[C@H]2OC(CO)[C@@H](NC3CN(C)C3)[C@H](O)C2O)O[C@H]2CC(N)[C@@H](O[C@@H]3C(N)C[C@@H](N)C(O)[C@H]3O)OC2C1O (stereo partly drawn) please.
16

For S. aureus MF490, provide MIC of CNC1C(O[C@H]2OC(CO)[C@@H](NCCCN)[C@H](O)C2O)O[C@H]2CC(N)[C@@H](O[C@@H]3C(N)C[C@@H](N)C[C@H]3O)OC2C1O (stereo partly drawn) please.
8

For S. aureus MF490, provide MIC of CNCC(=O)N[C@@H]1C(CO)O[C@H](OC2O[C@H]3CC(N)[C@@H](O[C@@H]4C(N)C[C@@H](N)C(O)[C@H]4O)OC3C(O)C2NC)C(O)[C@H]1O (stereo partly drawn) please.
8

For S. aureus MF490, provide MIC of CNC1C(O[C@H]2OC(CO)[C@@H](NC(=N)N)[C@H](O)C2O)O[C@H]2CC(N)[C@@H](O[C@H]3CC(O)[C@H](N)CC3N)OC2C1O (stereo partly drawn) please.
4

For S. aureus MF490, provide MIC of CNC1C(O[C@H]2OC(CO)[C@@H](NC(CN)CN)[C@H](O)C2O)O[C@H]2CC(N)[C@@H](O[C@H]3CC(O)[C@H](N)CC3N)OC2C1O (stereo partly drawn) please.
4

For S. aureus MF490, provide MIC of CNC1C(O[C@H]2OC(CO)[C@@H](NCCCN)[C@H](O)C2O)O[C@H]2CC(N)[C@@H](O[C@@H]3C(N)C[C@@H](N)C(O)[C@H]3O)OC2C1O (stereo partly drawn) please.
8

Where do these numbers come from? They come from patent US11135234B2.
